Record form. Attribute: pKa. Fill in for each entry.
assay: Acid dissociation constant was determined; type: ADME; settings: read-out: pKa1
Form field (numeric): enter value without unit.

Entry CCc1c(O)c(=O)ccn1CC has what pKa? 3.93

Entry CCn1ccc(=O)c(O)c1C has what pKa? 3.79

Entry Cn1ccc(=O)c(O)c1 has what pKa? 3.35

Entry CCc1c(O)c(=O)ccn1C has what pKa? 3.74

Entry O=C(O)CCn1ccc(=O)c(O)c1 has what pKa? 2.92

Entry Oc1ccncc1O has what pKa? 3.36

Entry Cc1c(O)c(=O)ccn1C has what pKa? 3.84

* * *

test: log K1 value of the compound; format: ADME
quantityMeasured: Log K1
Form field (numeric): enter value without unit.

Entry Cn1ccc(=O)c(O)c1 has what Log K1? 9.35

Entry CCc1c(O)c(=O)ccn1CC has what Log K1? 13.18

Entry O=C(O)CCn1ccc(=O)c(O)c1 has what Log K1? 9.48

Entry Oc1ccncc1O has what Log K1? 9.49

Entry Cc1c(O)c(=O)ccn1C [DEFERIPRONE] has what Log K1? 11.48

Reference for the values: ChEMBL document CHEMBL1127328
